# TARGET ENTITY: human CD33 on primary human dendritic cells (human, UniProt P20138 18-364)
# Sequence (P20138 18-364): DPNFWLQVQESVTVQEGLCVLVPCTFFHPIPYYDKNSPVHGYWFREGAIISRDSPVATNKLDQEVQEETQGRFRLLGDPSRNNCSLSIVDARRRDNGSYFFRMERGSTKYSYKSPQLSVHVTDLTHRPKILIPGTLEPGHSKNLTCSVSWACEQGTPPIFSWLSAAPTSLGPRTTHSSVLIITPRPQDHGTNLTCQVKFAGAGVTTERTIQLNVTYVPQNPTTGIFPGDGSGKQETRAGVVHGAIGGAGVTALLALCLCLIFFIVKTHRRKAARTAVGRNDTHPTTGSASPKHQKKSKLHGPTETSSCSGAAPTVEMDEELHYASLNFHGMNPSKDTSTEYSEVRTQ
# PROTOCOL DESCRIPTION: cell-based or functional assay
Recorded Receptor downregulation, (EC50) (pM) values for a group of binders are listed next.
PARAMETER MEASURED: Receptor downregulation, (EC50) (pM)

binder="anti-CD33 antibody 6C7H53 (antibody, V domains shown, VH/VL only) VH: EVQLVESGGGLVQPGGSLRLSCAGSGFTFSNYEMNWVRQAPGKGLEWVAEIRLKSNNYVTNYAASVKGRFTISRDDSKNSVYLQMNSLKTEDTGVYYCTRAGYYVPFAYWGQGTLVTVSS VL: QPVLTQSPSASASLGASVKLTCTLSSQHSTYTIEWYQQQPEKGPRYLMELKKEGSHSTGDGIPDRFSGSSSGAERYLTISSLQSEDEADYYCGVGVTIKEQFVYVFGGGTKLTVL" unit=pM obs_value=35.4
binder="anti-CD33 antibody 6C7H50 (antibody, V domains shown, VH/VL only) VH: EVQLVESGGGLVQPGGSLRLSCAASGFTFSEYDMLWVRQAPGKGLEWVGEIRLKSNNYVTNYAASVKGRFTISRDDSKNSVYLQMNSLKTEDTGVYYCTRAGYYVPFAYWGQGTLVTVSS VL: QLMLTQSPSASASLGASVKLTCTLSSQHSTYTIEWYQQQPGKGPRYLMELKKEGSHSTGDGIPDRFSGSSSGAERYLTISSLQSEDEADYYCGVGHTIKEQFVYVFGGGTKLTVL" unit=pM obs_value=57.8
binder="anti-CD33 antibody 6C7H44 (antibody, V domains shown, VH/VL only) VH: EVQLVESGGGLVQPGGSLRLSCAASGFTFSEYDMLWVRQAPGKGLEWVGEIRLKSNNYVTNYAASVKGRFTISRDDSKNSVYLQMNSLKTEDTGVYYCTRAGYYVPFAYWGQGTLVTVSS VL: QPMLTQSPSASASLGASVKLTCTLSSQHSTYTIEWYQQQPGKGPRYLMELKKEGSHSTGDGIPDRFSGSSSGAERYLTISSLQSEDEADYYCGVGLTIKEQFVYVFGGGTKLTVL" unit=pM obs_value=45.7
